Experiment: recombinant barcode read abundance after kanamycin selection (control-corrected) (log10(CPM+1)); higher = more efficient recombination; sequences stand for … in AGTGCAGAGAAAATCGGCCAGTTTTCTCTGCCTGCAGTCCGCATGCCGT…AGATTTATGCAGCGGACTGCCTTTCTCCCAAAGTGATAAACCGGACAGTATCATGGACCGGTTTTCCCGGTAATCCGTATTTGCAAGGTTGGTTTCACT; site = the 11-nt target
measurement_type: recombinant barcode read abundance (log10)

{"columns": ["sequence_content", "value_reported"],
 "data": [
  ["ATCGGTCCTTGGGTTCTAACCTGTTGCCT (site ATCGGTCCTAG)", 1.29],
  ["TAGGCATCTTGGGTTCTAACCTGTTGCTC (site TAGGCATCTGA)", 0.95],
  ["GACTAAGCTTGGGTTCTAACCTGTTGCGG (site CTGGGGTCTAA)", 0.0398],
  ["GATTATTCTTGGGTTCTAACCTGTTGCCT (site GACTATTCTAG)", 0.0521],
  ["GTCTAATCTTGGGTTCTAACCTGTTGCCT (site GTCTGATCTAG)", 0.174],
  ["GTAAGTACTTGGGTTCTAACCTGTTGCGG (site GTAAGTACTCC)", 2.06],
  ["GCGGCGACTTGGGTTCTAACCTGTTGCCT (site GCCGCGACTAG)", 0.162],
  ["GTTACAACTTGGGTTCTAACCTGTTGCCT (site GTTACAACTAG)", 0.263],
  ["AATTGTCCTTGGGTTCTAACCTGTTGCTT (site AATTGTCCTAA)", 0.246],
  ["GTGTAGGCTTGGGTTCTAACCTGTTGCAG (site GTGTAGGCTCT)", 2.66],
  ["AATAACCCTTGGGTTCTAACCTGTTGCCT (site AATAACCCTAG)", 1.2],
  ["TTCTTTCCTTGGGTTCTAACCTGTTGCCT (site TTCTTTCCTAG)", 0.11],
  ["GCAAGGCCTTGGGTTCTAACCTGTTGCCT (site TCAAGGCCTAG)", 0.0143],
  ["GAGATCCCTTGGGTTCTAACCTGTTGCTA (site GAGATCCCTCA)", 0.427],
  ["TGTGCGTCTTGGGTTCTAACCTGTTGCCT (site GGTGCGTCTAG)", 0.0172],
  ["GGGCACTCTTGGGTTCTAACCTGTTGCAT (site GGGCACTCTAG)", 0.606],
  ["ACGTTGCCTTGGGTTCTAACCTGTTGCCT (site ACGTTGCCTAG)", 0.316],
  ["CAGTACTCTTGGGTTCTAACCTGTTGCCT (site CAGTAATCTAG)", 0.122],
  ["AGGGACCCTTGGGTTCTAACCTGTTGCCT (site TCTTGGACTGT)", 0.0407],
  ["TGCTCGGCTTGGGTTCTAACCTGTTGCCT (site TGCTCGGCTAG)", 0.0603],
  ["TAGTTAGCTTGGGTTCTAACCTGTTGCCT (site TAGTTAGCTTG)", 0.11],
  ["GGTGGGTCTTGGGTTCTAACCTGTTGCGT (site GGTGGGTCTAT)", 1.93],
  ["ATATTGTCTTGGGTTCTAACCTGTTGCCA (site ATATTGTCTTG)", 0.611],
  ["TAGTTCACTTGGGTTCTAACCTGTTGCCA (site TAGTTCACTTG)", 0.0767],
  ["TAGAATCCTTGGGTTCTAACCTGTTGCAC (site TAGAATCCTGT)", 0.152],
  ["CTACGAACTTGGGTTCTAACCTGTTGCGG (site CTACGAACTCC)", 2.17],
  ["GACCGTCCTTGGGTTCTAACCTGTTGCCT (site GACCGTCCTAC)", 0.1],
  ["ATCGAGTCTTGGGTTCTAACCTGTTGCCA (site CAAATCCCTAC)", 0.112],
  ["GGACGACCTTGGGTTCTAACCTGTTGCCT (site GGACGACCTAG)", 2.26],
  ["TAGGCCACTTGGGTTCTAACCTGTTGCTT (site TAGGCCACTAT)", 0.539],
  ["GCCGAAACTTGGGTTCTAACCTGTTGCCT (site GCCGATACTAG)", 0.311],
  ["CTAAGGGCTTGGGTTCTAACCTGTTGCTG (site CTAAGGGCTCA)", 0.772],
  ["GGAAAGACTTGGGTTCTAACCTGTTGCAC (site GGAAAGACTGT)", 2.02],
  ["GATTCTCCTTGGGTTCTAACCTGTTGCAT (site GATTCTCCTAA)", 0.246],
  ["GTGAAGCCTTGGGTTCTAACCTGTTGCCA (site GTGTATCCTTG)", 0.165],
  ["ACGCTGGCTTGGGTTCTAACCTGTTGCCT (site ACCCTGGCTAG)", 0.0594],
  ["TTAGAGCCTTGGGTTCTAACCTGTTGCCT (site TTAGAGTCTAG)", 0.644],
  ["GGGCCTACTTGGGTTCTAACCTGTTGCTT (site GGGCCTACTCA)", 0.369],
  ["CGTTAGACTTGGGTTCTAACCTGTTGCCT (site CGTAAGACTAG)", 0.113],
  ["CATGAGCCTTGGGTTCTAACCTGTTGCCT (site CATTAGCCTAG)", 0.196],
  ["TAGGCTACTTGGGTTCTAACCTGTTGCAT (site TAGGCTACTCT)", 0.301],
  ["CTCTTAACTTGGGTTCTAACCTGTTGCTA (site CTCTTAACTTA)", 0.128]
]}

====

Experiment: recombinant barcode read abundance after kanamycin selection (control-corrected) (log10(CPM+1)); higher = more efficient recombination; sequences stand for … in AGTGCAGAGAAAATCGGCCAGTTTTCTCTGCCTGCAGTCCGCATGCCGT…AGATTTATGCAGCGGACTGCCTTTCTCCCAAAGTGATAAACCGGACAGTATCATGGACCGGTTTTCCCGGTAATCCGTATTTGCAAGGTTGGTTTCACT; site = the 11-nt target
Label 1 (yes) when recombinant barcode read abundance (log10) is at or above 0.6; otherwise label 0 (no).

{"columns": ["sequence_content", "assigned_class"],
 "data": [
  ["CGGAATCCTTGGGTTCTAACCTGTTGCCT (site CGGAATCCTAA)", "0 (no)"],
  ["TTAGCCTCTTGGGTTCTAACCTGTTGCCT (site TTAGCCTCTAG)", "1 (yes)"],
  ["TACAGAGCTTGGGTTCTAACCTGTTGCGG (site TATAGAGCTCC)", "0 (no)"],
  ["CTATACTCTTGGGTTCTAACCTGTTGCCA (site CTATACTCTTG)", "1 (yes)"],
  ["CTACGGCCTTGGGTTCTAACCTGTTGCGT (site CTACGGCCTAC)", "1 (yes)"],
  ["TACGCACCTTGGGTTCTAACCTGTTGCGA (site TACGCACCTTC)", "1 (yes)"],
  ["ACCTGAACTTGGGTTCTAACCTGTTGCCT (site ACATGAACTAG)", "0 (no)"],
  ["GCCGTCCCTTGGGTTCTAACCTGTTGCTA (site GCCGTCCCTTA)", "0 (no)"],
  ["GGTACGACTTGGGTTCTAACCTGTTGCAG (site GGTACGACTCT)", "1 (yes)"]
]}

====

Assay: recombinant UMI read abundance after kanamycin selection (control-corrected) (log10(CPM+1)); higher = more efficient recombination; extreme values may be limits of the assay; sequences stand for … in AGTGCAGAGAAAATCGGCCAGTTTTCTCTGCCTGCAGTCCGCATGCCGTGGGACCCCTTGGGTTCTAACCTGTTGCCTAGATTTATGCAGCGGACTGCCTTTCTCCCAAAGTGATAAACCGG…AGGTTGGTTTCACT; site = the 11-nt donor
# recombinant UMI read abundance (log10) annotations

{"columns": ["sequence_content", "recombinant UMI read abundance (log10)"],
 "data": [
  ["TGAGTGGCATGGACCGGTTTTCCCGGTAATCCGTATTTGGT (site CGAGTGGCTAC)", 0.605],
  ["TTAGCTGCATGGACCGGTTTTCCCGGTAATCCGTATTTGCG (site TTAGCTGCTCC)", 0.0194],
  ["ACGGTTTCATGGACCGGTTTTCCCGGTAATCCGTATTTGCA (site ACGGTTTCTTG)", 2.34],
  ["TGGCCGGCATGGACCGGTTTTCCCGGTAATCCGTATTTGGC (site TGGGCGGCTGC)", 0],
  ["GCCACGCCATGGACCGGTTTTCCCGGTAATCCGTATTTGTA (site GCCACGCCTGA)", 0],
  ["CCGAATCCATGGACCGGTTTTCCCGGTAATCCGTATTTGTT (site CCGAATCCTAA)", 0.251],
  ["TCGGAGACATGGACCGGTTTTCCCGGTAATCCGTATTTGCG (site TCGGAGACTCG)", 2.41],
  ["CACTGATCATGGACCGGTTTTCCCGGTAATCCGTATTTGGG (site CACTGATCTCC)", 1.27],
  ["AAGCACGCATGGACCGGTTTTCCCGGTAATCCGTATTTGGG (site AAGCACGCTCA)", 0.0347],
  ["CCGGGTGCATGGACCGGTTTTCCCGGTAATCCGTATTTGAT (site CCCGGTGCTAT)", 0.797],
  ["TAAGATTCATGGACCGGTTTTCCCGGTAATCCGTATTTGTT (site TAAGATTCTAA)", 2.02],
  ["GGGACTACATGGACCGGTTTTCCCGGTAATCCGTATTTGAC (site TGGACTACTGT)", 0],
  ["TGCGGTACATGGACCGGTTTTCCCGGTAATCCGTATTTGAG (site TGCGGTACTCT)", 0.757],
  ["AAAGAATCATGGACCGGTTTTCCCGGTAATCCGTATTTGCA (site ACAGTATCTTG)", 0.902],
  ["CGAGTATCATGGACCGGTTTTCCCGGTAATCCGTATTTGCA (site CGAGTATCTTG)", 3],
  ["CCTATTACATGGACCGGTTTTCCCGGTAATCCGTATTTGGC (site CCTATTACTGC)", 0],
  ["TGTGCGGCATGGACCGGTTTTCCCGGTAATCCGTATTTGCT (site TATGCGGCTAG)", 0.00771],
  ["GTTAGAACATGGACCGGTTTTCCCGGTAATCCGTATTTGAC (site GTTAGAACTGT)", 1.89]
]}
